Test system: mouse RANKL mRNA
experiment_summary: Antisense inhibition of mouse RANKL mRNA levels in C2C12 cells, quantitative real-time PCR (Table 2)
Assay type: cell-based
Set-up: concentration or dose not given beside the values
applied_conditions: averages from three experiments
Strand notation (5' to 3'): a small letter for the sugar, then the base; units joined by * are phosphorothioate-linked, units joined directly phosphodiester-linked; [ ] holds rarer units or linkages, { } end groups; capitals alone tell only the bases. e = 2'-O-(2-methoxyethyl) (MOE); [5mC] = 5-methylcytosine; d = 2'-deoxy (DNA)
readout_name: % INHIB (inhibition of mouse RANKL mRNA levels)

| substance | measured_result |
| --- | --- |
| tgcaggtcccagcgcaatgt (antisense eT*eG*e[5mC]*eA*eG*dG*dT*d[5mC]*d[5mC]*d[5mC]*dA*dG*d[5mC]*dG*d[5mC]*eA*eA*eT*eG*eT) [ISIS 180819, 2′-MOE gapmer targeted to mouse RANKL] | at least 40% |
| agcaaatgttggcgtacagg (antisense eA*eG*e[5mC]*eA*eA*dA*dT*dG*dT*dT*dG*dG*d[5mC]*dG*dT*eA*e[5mC]*eA*eG*eG) [ISIS 180807, 2′-MOE gapmer targeted to mouse and rat RANKL] | at least 40% |
| tcggctggcccggcgcatgg (antisense eT*e[5mC]*eG*eG*e[5mC]*dT*dG*dG*d[5mC]*d[5mC]*d[5mC]*dG*dG*d[5mC]*dG*e[5mC]*eA*eT*eG*eG) [ISIS 180796, 2′-MOE gapmer targeted to mouse RANKL] | at least 40% |
| cttatttgcaggtcccagcg (antisense e[5mC]*eT*eT*eA*eT*dT*dT*dG*d[5mC]*dA*dG*dG*dT*d[5mC]*d[5mC]*e[5mC]*eA*eG*e[5mC]*eG) [ISIS 180820, 2′-MOE gapmer targeted to mouse RANKL] | at least 40% |
| agctacgagtaccttcaggg (antisense eA*eG*e[5mC]*eT*eA*d[5mC]*dG*dA*dG*dT*dA*d[5mC]*d[5mC]*dT*dT*e[5mC]*eA*eG*eG*eG) [ISIS 180827, 2′-MOE gapmer targeted to mouse RANKL] | at least 40% |

Batch request: % INHIB (inhibition of mouse RANKL mRNA levels) per item, same order as input.
1. agcagactccgccacggccc (antisense eA*eG*e[5mC]*eA*eG*dA*d[5mC]*dT*d[5mC]*d[5mC]*dG*d[5mC]*d[5mC]*dA*d[5mC]*eG*eG*e[5mC]*e[5mC]*e[5mC]) [ISIS 180790, 2′-MOE gapmer targeted to mouse RANKL]
2. cctgacagatttcagtagcc (antisense e[5mC]*e[5mC]*eT*eG*eA*d[5mC]*dA*dG*dA*dT*dT*dT*d[5mC]*dA*dG*eT*eA*eG*e[5mC]*e[5mC]) [ISIS 180831, 2′-MOE gapmer targeted to mouse RANKL]

Result string:
at least 40%
at least 40%
